This collection of values is drawn from patent US12559492B2.

Target: BRAF^V600E protein (Homo sapiens, UniProt P15056, V600E)
Sequence (P15056 whole entry V600E): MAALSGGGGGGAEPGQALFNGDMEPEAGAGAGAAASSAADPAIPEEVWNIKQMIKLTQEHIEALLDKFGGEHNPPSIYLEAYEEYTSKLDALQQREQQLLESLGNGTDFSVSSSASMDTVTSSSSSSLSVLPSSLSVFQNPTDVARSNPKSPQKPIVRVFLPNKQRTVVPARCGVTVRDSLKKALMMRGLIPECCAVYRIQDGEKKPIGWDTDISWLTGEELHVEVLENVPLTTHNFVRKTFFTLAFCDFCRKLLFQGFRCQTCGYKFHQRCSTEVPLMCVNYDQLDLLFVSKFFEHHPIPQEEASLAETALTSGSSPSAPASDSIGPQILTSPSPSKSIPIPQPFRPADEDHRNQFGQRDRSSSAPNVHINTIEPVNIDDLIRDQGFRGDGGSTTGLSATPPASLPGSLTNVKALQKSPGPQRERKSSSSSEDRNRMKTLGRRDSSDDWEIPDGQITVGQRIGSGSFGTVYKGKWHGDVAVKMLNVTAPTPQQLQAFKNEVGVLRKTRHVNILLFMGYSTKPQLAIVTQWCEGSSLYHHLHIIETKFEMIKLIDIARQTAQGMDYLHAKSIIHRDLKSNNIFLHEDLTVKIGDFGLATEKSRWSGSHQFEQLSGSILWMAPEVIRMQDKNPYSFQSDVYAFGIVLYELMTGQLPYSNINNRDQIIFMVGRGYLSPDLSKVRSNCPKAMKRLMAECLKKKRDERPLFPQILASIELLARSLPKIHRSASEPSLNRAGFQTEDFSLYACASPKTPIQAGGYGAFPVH
Assay: HiBiT cellular BRAF V600E degradation assay
Assay type: cell-based
Conditions: A375.10 cells, 24 h incubation; Emax = amount of residual protein remaining in the cell after compound treatment; read-out: HiBit 24 h Emax
MEASURED_ATTRIBUTE: Emax (%)

Check out these entries, answers already filled in.
COMPOUND	TESTED_TARGET	Emax, %
CCN(C)S(=O)(=O)Nc1ccc(F)c(C(=O)c2c[nH]c3ncc(-c4ccc(N5CCN(C(=O)CN6CCC(c7ccc(C8CCC(=O)NC8=O)cc7)CC6)CC5)nc4)cc23)c1F (centres unmarked) [Example A82]	BRAF^V600E protein (Homo sapiens, UniProt P15056, V600E)	9.6
CCN(C)S(=O)(=O)Nc1cccc(C(=O)c2c[nH]c3ncc(-c4cnc(N5CCN(C(=O)CC6(O)CCN(c7ccc(N8CCC(=O)NC8=O)cc7F)CC6)CC5)nc4)cc23)c1F [Example 165]	BRAF^V600E protein (Homo sapiens, UniProt P15056, V600E)	10.8
CCN(C)S(=O)(=O)Nc1ccc(F)c(C(=O)c2c[nH]c3ncc(-c4cnc(N5CC6(CN(C(=O)CN7CCC(c8ccc(NC9CCC(=O)NC9=O)cc8)CC7)C6)C5)nc4)cc23)c1F (centres unmarked) [Example 64]	BRAF^V600E protein (Homo sapiens, UniProt P15056, V600E)	9.33

(P) CCN(C)S(=O)(=O)Nc1cccc(C(=O)c2c[nH]c3ncc(-c4ccc(N5CCN(C(=O)CC6(O)CCN(c7ncc(NC8CCC(=O)NC8=O)cc7F)CC6)CC5)nc4)cc23)c1F (centres unmarked) [Example 115]
(Q) CCN(C)S(=O)(=O)Nc1ccc(F)c(C(=O)c2c[nH]c3ncc(C#Cc4ccc(C(=O)NCCN5CCC(c6ccc(NC7CCC(=O)NC7=O)cc6)CC5)cc4)cc23)c1F (centres unmarked) [Example A86]
Task: Field: lower recorded Emax (choose P or Q ) Pick one; state its label.
Result: P
(P: 12.2%, Q: 23%)

---

Target: BRAF^V600E protein (Homo sapiens, UniProt P15056, V600E)
Test: HiBiT cellular BRAF V600E degradation assay
Assay type: cell-based
Settings: A375.10 cells, 24 h incubation; Emax = amount of residual protein remaining in the cell after compound treatment; read-out: HiBit 24 h Emax
Where a name gives a salt, the structure may show the parent alone.
MEASURED_ATTRIBUTE: Emax (%)

MOLECULE	MEASURED_ATTRIBUTE	RESULT_VALUE
CCN(C)S(=O)(=O)Nc1ccc(F)c(C(=O)c2c[nH]c3ncc(-c4ccc(N5CCN(C(=O)CC6(O)CCN(c7ccc(N[C@@H]8CCC(=O)NC8=O)cc7F)CC6)CC5)nc4)cc23)c1F [Example 177]	Emax	9.99
CCN(C)S(=O)(=O)Nc1ccc(F)c(C(=O)c2c[nH]c3ncc(-c4ccc(N5CCN(C(=O)CN6CCC(c7ccc(OC8CCC(=O)NC8=O)cc7)CC6)CC5)cc4)cc23)c1F (centres unmarked) [Example A14]	Emax	9.74
CCN(C)S(=O)(=O)Nc1ccc(F)c(C(=O)c2c[nH]c3ncc(-c4ccc(N5CCC(N(C)C(=O)CN6CCC(c7ccc(NC8CCC(=O)NC8=O)cn7)CC6)CC5)nc4)cc23)c1F (centres unmarked) [Example A95, hydrochloride]	Emax	7
CCN(C)S(=O)(=O)Nc1ccc(F)c(C(=O)c2c[nH]c3ncc(-c4ccc(N5CCN(C(=O)CC6(O)CCN(c7ccc(N[C@@H]8CCC(=O)NC8=O)cc7F)CC6)CC5)cc4)cc23)c1F [Example 178]	Emax	9.65
CCN(C)S(=O)(=O)Nc1ccc(F)c(C(=O)c2c[nH]c3ncc(-c4ccc(N5CCN(C(=O)CC6(O)CCN(c7ccc(NC8CCC(=O)NC8=O)c(F)c7)CC6)CC5)cc4)cc23)c1F (centres unmarked) [Example 184]	Emax	9.04
